Source: ChEMBL document CHEMBL2169847

# Experimental System: DNA topoisomerase 2-alpha (Homo sapiens)
# Assay Remarks: Inhibition of human Top2alpha assessed as suppression of supercoiled pBR322 DNA relaxation at 50 uM incubated for 30 mins by electrophoresis method
The source made the active and inactive calls. The calls are words filed in the database; no cut-off is given here.
Choose the fitting class; nothing outside t (active), f (inactive) is accepted.

Here are 6 compounds together with their reported answers.
CN1c2ccc(Cl)cc2C(=O)N2CCc3c([nH]c4ccc(O)cc34)C21 (stereo unspecified) :: t
CN1c2ccccc2C(=O)N2CCc3c([nH]c4c(Cl)cccc34)C21 (stereo unspecified) :: f
CN1c2cccc(O)c2C(=O)N2CCc3c([nH]c4ccccc34)C21 (stereo unspecified) :: t
CN1c2ccc(O)cc2C(=O)N2CCc3c([nH]c4ccccc34)C21 (stereo unspecified) :: f
CN1c2ccc(Cl)cc2C(=O)N2CCc3c([nH]c4ccccc34)C21 (stereo unspecified) :: f
CN1c2ccc(F)cc2C(=O)N2CCc3c([nH]c4ccc(O)cc34)C21 (stereo unspecified) :: t

Moving on to another compound below.
Exercise: Would you mind telling me which call this test gave CN1c2ccc(O)cc2C(=O)N2CCc3c([nH]c4ccc(O)cc34)C21 (stereo unspecified) ?
Solution: t
